# EXPERIMENTAL_TARGET: UniProtKB P07711
# ASSAY_PROTOCOL: Cathepsin enzyme inhibition assay (fluorogenic peptide substrate Z-Val-Val-Arg-AMC), Cathepsin L
# Type: biochemical, human and mouse
# MEASUREMENT_PARAMETERS: enzyme 1 nM, substrate 20 μM, pH 6.5; read-out: CatL IC50
pIC50: −log10 of the molar value.
OBSERVED_PROPERTY: pIC50

Use the examples below as a reference point.
compound="CC(C)(C)OC(=O)N1C[C@H](S(=O)(=O)c2ccccc2C(F)(F)F)C[C@H]1C(=O)NC(C#N)C1CC1 (stereo partly shown) [Example 38]" observed_property=pIC50 meas_value="≤ 4.60"
compound="N#CC1(NC(=O)[C@@H]2C[C@@H](S(=O)(=O)c3ccc(OCC(F)(F)F)cc3Cl)CN2C(=O)C2(c3ccccc3)CC2)CC1 [Example 240]" observed_property=pIC50 meas_value=6.23
compound="CC(C)CC(=O)N1C[C@H](S(=O)(=O)c2ccccc2Cl)C[C@H]1C(=O)NC1(C#N)CC1 [Example 220]" observed_property=pIC50 meas_value=4.75
compound="CCC(=O)N1C[C@H](S(=O)(=O)c2ccccc2C(F)(F)F)C[C@H]1C(=O)NC1(C#N)CC1 [Example 103]" observed_property=pIC50 meas_value="≤ 4.60"
compound="N#CCNC(=O)C12CC(F)(F)CN1CCC2S(=O)(=O)c1ccccc1 (stereo not shown) [Example 117]" observed_property=pIC50 meas_value="≤ 4.60"

Problem: For CC(C)(C)OC(=O)N1C[C@H](S(=O)(=O)c2ccccc2Cl)C[C@H]1C(=O)NC1(C#N)CCC1 [Example 34] , what is its reported pIC50?
Solution: ≤ 4.60

Problem: For Cc1cc(N2C[C@H](S(C)(=O)=O)C[C@H]2C(=O)NC2(C#N)CC2)n(-c2ccc(C(F)(F)F)cc2)n1 [Example 462] , what is its reported pIC50?
Solution: < 4.60

====

# EXPERIMENTAL_TARGET: UniProt:P07711
# ASSAY_PROTOCOL: Cathepsin enzyme inhibition assay (fluorogenic peptide substrate Z-Val-Val-Arg-AMC), Cathepsin L
# Type: biochemical, human and mouse
# MEASUREMENT_PARAMETERS: enzyme 1 nM, substrate 20 μM, pH 6.5; read-out: CatL IC50
OBSERVED_PROPERTY: pIC50
// returns pIC50 (minus log10 of molar concentration), number only

Use the examples below as a reference point.
compound="C[C@H](Oc1ccc(S(=O)(=O)[C@@H]2C[C@@H](C(=O)NC3(C#N)CC3)N(C(=O)C3CC3)C2)c(Cl)c1)C(F)(F)F [Example 197]" experimental_target=UniProt:P07711 meas_value=4.72
compound="CC(C)(C)OC(=O)N1C[C@H](S(=O)(=O)c2ccc(N3CCC(F)(F)CC3)cc2Cl)C[C@H]1C(=O)NC1(C#N)CC1 [Example 152]" experimental_target=UniProt:P07711 meas_value=4.51
compound="N#CC1(NC(=O)[C@@H]2C[C@@H](S(=O)(=O)c3ccccc3C(F)(F)F)CN2Cc2ccccc2)CC1 [Example 107]" experimental_target=UniProt:P07711 meas_value=4.78
compound="Cc1cc(N2C[C@H](S(=O)(=O)c3ccc(F)cc3Cl)C[C@H]2C(=O)NC2(C#N)CC2)n(C2CCC2)n1 [Example 385]" experimental_target=UniProt:P07711 meas_value=5.19
compound="N#CC1(NC(=O)[C@@H]2C[C@@H](S(=O)(=O)c3ccccc3Cl)CN2C(=O)c2n[nH]c3cc(Cl)ccc23)CC1 [Example 410]" experimental_target=UniProt:P07711 meas_value=4.53

Problem: For CCOC(=O)N1C[C@H](S(=O)(=O)c2ccccc2Cl)C[C@H]1C(=O)NC1(C#N)CC1 [Example 96] , what is its reported pIC50?
Solution: 4.50

Problem: For Cc1cc(N2C[C@H](S(=O)(=O)c3ccc(-n4cccn4)cc3Cl)C[C@H]2C(=O)NC2(C#N)CC2)n(C2CCOCC2)n1 [Example 490] , what is its reported pIC50?
Solution: 5.36

====

# EXPERIMENTAL_TARGET: Cat L (UniProt P07711)
# ASSAY_PROTOCOL: Cathepsin enzyme inhibition assay (fluorogenic peptide substrate Z-Val-Val-Arg-AMC), Cathepsin L
# Format: biochemical, human and mouse
# MEASUREMENT_PARAMETERS: enzyme 1 nM, substrate 20 μM, pH 6.5; read-out: CatL IC50
Property: pIC50; scope: individual molecules
// returns pIC50 (minus log10 of molar concentration), number only

molecule="C[C@H](Oc1ccc(S(=O)(=O)[C@@H]2C[C@@H](C(=O)NC3(C#N)CC3)N(C(=O)C(C)(C)C)C2)c(Cl)c1)C(F)(F)F [Example 203]" experimental_target="Cat L (UniProt P07711)" observed_property=pIC50 meas_value=5.03

# next molecule below
Problem: For Cc1cc(N2C[C@H](S(=O)(=O)c3ccc(-n4cccn4)cc3C(F)(F)F)C[C@H]2C(=O)NC2(C#N)CC2)n(C2CCC2)n1 [Example 416] , what is its reported pIC50?
Solution: 4.67

====

# EXPERIMENTAL_TARGET: Cat L (UniProt P07711)
# ASSAY_PROTOCOL: Cathepsin enzyme inhibition assay (fluorogenic peptide substrate Z-Val-Val-Arg-AMC), Cathepsin L
# Format: biochemical, human and mouse
# MEASUREMENT_PARAMETERS: enzyme 1 nM, substrate 20 μM, pH 6.5; read-out: CatL IC50
pIC50: −log10 of the molar value.
Label FALSE if pIC50 falls below 6; label TRUE in every other case.

Some entries whose results are on file:
molecule=N#CC1(NC(=O)[C@@H]2C[C@@H](S(=O)(=O)c3ccc(OCC(F)(F)F)cc3Cl)CN2C(=O)C2(c3cccc4ccccc34)OCCO2)CC1 experimental_target="Cat L (UniProt P07711)" class=TRUE
molecule=CC(C)(C)OC(=O)N1C[C@H](S(=O)(=O)c2ccc(OCCN3CCCCC3)cc2Cl)C[C@H]1C(=O)NC1(C#N)CC1 experimental_target="Cat L (UniProt P07711)" class=FALSE
molecule=C[C@H](Oc1ccc(S(=O)(=O)[C@H]2CN[C@H](C(=O)NC3(C#N)CC3)C2)c(Cl)c1)C(F)(F)F experimental_target="Cat L (UniProt P07711)" class=FALSE

Problem: Is it the case that CC1(C(=O)N2C[C@H](S(=O)(=O)c3ccc(Br)cc3C(F)(F)F)C[C@H]2C(=O)NC2(C#N)CC2)CC1 has pIC50 reaching or exceeding 6?
Solution: FALSE

Problem: Is it the case that N#CC1(NC(=O)[C@@H]2C[C@@H](S(=O)(=O)c3ccccc3Cl)CN2C(=O)Cc2ncc(Cl)cn2)CC1 has pIC50 reaching or exceeding 6?
Solution: FALSE

Problem: Is it the case that N#CC1(NC(=O)[C@@H]2C[C@@H](S(=O)(=O)c3ccccc3Cl)CN2C(=O)C2(c3ccc(OC(F)(F)F)cc3)CC2)CC1 has pIC50 reaching or exceeding 6?
Solution: TRUE

====

Property: pIC50; scope: individual molecules
# EXPERIMENTAL_TARGET: UniProt:P25774
# ASSAY_PROTOCOL: Cathepsin enzyme inhibition assay (fluorogenic peptide substrate Z-Val-Val-Arg-AMC), Cathepsin S
# Assay type: biochemical, human and mouse
# MEASUREMENT_PARAMETERS: enzyme 1 nM, substrate 20 μM, pH 6.5; read-out: CatS IC50
// returns pIC50 (minus log10 of molar concentration), number only

molecule=CC1(C(=O)N2C[C@H](S(=O)(=O)c3ccccc3Cl)C[C@H]2C(=O)NC2(C#N)CC2)CC1 experimental_target=UniProt:P25774 meas_value=9.30
molecule=CCC(=O)N1C[C@H](S(=O)(=O)c2ccccc2Cl)C[C@H]1C(=O)NCC#N experimental_target=UniProt:P25774 meas_value=8.92
molecule=N#CC1(NC(=O)[C@@H]2C[C@@H](S(=O)(=O)c3ccc(N4CCC(C(F)(F)F)CC4)cc3Cl)CN2)CC1 experimental_target=UniProt:P25774 meas_value=8.74

# next molecule below
Problem: For N#CC1CCN2C[C@H](S(=O)(=O)c3ccc(F)cc3Cl)C[C@@]12C(=O)NC1(C#N)CC1 (stereo partly shown) , what is its reported pIC50?
Solution: 7.85

====

# EXPERIMENTAL_TARGET: Cat L (UniProt P07711)
# ASSAY_PROTOCOL: Cathepsin enzyme inhibition assay (fluorogenic peptide substrate Z-Val-Val-Arg-AMC), Cathepsin L
# Assay type: biochemical, human and mouse
# MEASUREMENT_PARAMETERS: enzyme 1 nM, substrate 20 μM, pH 6.5; read-out: CatL IC50
Counter-ions that a name gives are not always drawn.
The label is true (1) for IC50 below 9 µM and false (0) for IC50 equal to or exceeding 9 µM.

Some entries whose results are on file:
compound=Cc1cc(N2C[C@H](S(=O)(=O)c3ccccc3C(F)(F)F)C[C@@H]2C(=O)NC2(C#N)CC2)n(Cc2ccccc2)n1 experimental_target="Cat L (UniProt P07711)" class="false (0)"
compound=Cc1ccc(S(=O)(=O)[C@@H]2C[C@@H](C(=O)NC3(C#N)CC3)N(C(=O)OC(C)(C)C)C2)c(C)c1 experimental_target="Cat L (UniProt P07711)" class="false (0)"
compound="Cc1nccn1-c1ccc(S(=O)(=O)[C@H]2CN[C@H](C(=O)NC3(C#N)CC3)C2)c(C(F)(F)F)c1 [Example 24, hydrochloride]" experimental_target="Cat L (UniProt P07711)" class="false (0)"

Problem: Threshold test, IC50 < 9 µM: CC(C)N1CCN(c2ccc(S(=O)(=O)[C@@H]3C[C@@H](C(=O)NC4(C#N)CC4)N(C(=O)C4(c5ccc(Cl)nc5)CC4)C3)c(Cl)c2)CC1
Solution: true (1)

Problem: Threshold test, IC50 < 9 µM: CC(C)(C)C(=O)N1C[C@H](S(=O)(=O)c2ccc(F)cc2C(F)(F)F)C[C@H]1C(=O)NC1(C#N)CC1
Solution: false (0)

Problem: Threshold test, IC50 < 9 µM: N#CCNC(=O)[C@@H]1C[C@@H](S(=O)(=O)c2ccccc2C(F)(F)F)CN1C(=O)c1ccc(F)cc1
Solution: false (0)

Problem: Threshold test, IC50 < 9 µM: CC(CN1C[C@H](S(=O)(=O)c2ccccc2Cl)C[C@H]1C(=O)NC1(C#N)CC1)C(F)(F)F (stereo partly shown)
Solution: false (0)

Problem: Threshold test, IC50 < 9 µM: Cc1cc(N2C[C@H](S(=O)(=O)c3ccccc3C(F)(F)F)C[C@H]2C(=O)NC2(C#N)CC2)n(CC(F)(F)F)n1
Solution: false (0)

Problem: Threshold test, IC50 < 9 µM: N#CC1(NC(=O)[C@@H]2C[C@H](S(=O)(=O)c3ccccc3C(F)(F)F)CN2)CC1
Solution: false (0)
